Tested on: SUD4
Experiment Summary: Antiproliferative activity against BCL6-dependent human SU-DHL-4 cells assessed as inhibition of cell growth at 10 uM measured after 6 days by MTT assay relative to control
Format: functional
Recorded Conditions: SU-DHL-4, 144 h, time 6 day
Observable: inhibition at 10 µM (%)
Provide only the numeric value, understood in %.

Task: Which measured inhibition at 10 µM value corresponds to COc1cc(Nc2nc(N3CCN(C(=O)CCCCCNc4cccc5c4C(=O)N(C4CCC(=O)NC4=O)C5=O)CC3)ncc2F)ccc1NC(=O)c1ccc(C2=CCCC2)s1 (stereo not drawn) ?
Output: 41.3

Task: Same thing, different compound: COc1cc(Nc2nc(N3CCN(CCCCCNc4cccc5c4C(=O)N(C4CCC(=O)NC4=O)C5=O)CC3)ncc2F)ccc1NC(=O)c1ccc(C2=CCCC2)s1 (stereo not drawn)
Output: 70.1

Task: Same thing, different compound: COc1cc(Nc2nc(N3CCN(C(=O)CCOCC#Cc4cccc5c4CN(C4CCC(=O)NC4=O)C5=O)CC3)ncc2F)ccc1NC(=O)c1ccc(C2=CCCC2)s1 (stereo not drawn)
Output: 98
